- experimental-target: T1, PSMA Fab (biotinylated (site not stated))
- T1 construct: Biotinylated PSMA Fab captured on neutravidin plates for the clonal phage ELISA; also called Anti-PSMA Fab; 006 PSMA Fab
- test-method-notes: clonal phage ELISA on biotinylated PSMA Fab captured on neutravidin, blocking buffer alone, anti-M13 HRP detection;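 also: clonal phage were tested as crude supernatants, and the signal reflects phage still bound to the wells after washing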
quantity: Phage binding ELISA signal, Anti-PSMA Fab

# binder, measurement
measured = [
    ("SYMRCEPEWMCSGL [Phage-3970]", 0.786),
    ("EIGACVPDWMCRGF [Phage-3968]", 0.809),
    ("DARLCTPLWMCTGF [Phage-3972]", 0.781),
    ("GGVMCRPMWMCAGF [Phage-3967]", 0.81),
    ("QQVRCVPDWMCSGF [Phage-3974]", 0.762),
    ("EAKWCTPQWMCGGF [Phage-3975]", 0.756),
    ("PAQICMPAWMCHGF [Phage-3976]", 0.754),
    ("QMSMCKPAWMCTGL [Phage-3973]", 0.767),
]
